# credit: PubChem BioAssay (NCI)

# Test system: U251 CNS
# Test Summary: NCI-60 one-dose screen, 48 h (100 = growth as untreated, 0 = no growth, -100 = all killed)
# Condition Summary: 10 µM unless noted
Compounds without any hit were thinned out: in the full panel of roughly 83,000, 20% have a hit.
Reported growth values for the following compounds.

Chemical Structure	growth [%]
c1ccc2c(-c3c[nH]c4ccccc34)c3c(cc2c1)[nH]c1ccccc13	70.1
Cc1c(C(=O)NCCC(=O)NO)sc2ncnc(Nc3ccc(NC(=O)Nc4cccc(C(F)(F)F)c4)cc3)c12	80.2
COc1ccc(C(=O)c2nc3ccccc3n2CC(=O)c2ccc(F)cc2)cc1	90.5
COc1cc2c(cc1OC)C(=O)/C(=C/c1cc(C)c(O)c(C)c1)S2	27.2
O=C(NO)c1ccc(-n2nc(-c3ccccc3)c3ccccc32)cc1	34.4
